system: MS2 coat protein; assay: apparent KD of MS2 coat protein, switch OFF state (with FMN for OFF switches, without FMN for ON switches); designed switch direction (-1 OFF switch, 1 ON switch): -1; higher = weaker reporter binding; settings: FMN input: 0 or 200 uM; Eterna round: R93 (includes R88 designs)
readout.kind: apparent KD of MS2 coat protein
Your answer should be a number followed by the unit of measure.

                             sequence_input       measured_on      val
0  AGCACGGUAGGAUAUACGAACAAAACGGGAGAACUAAAGGGACAUGAGGAUCACCCAUGUAGAAGGACCAAGCA [Diamond 90]  MS2 coat protein   119 nM
1  GAAAAGUCAGGAUAUAUGCGAAAAAUAAAAAAAAUAAAAACAUAGAAGGGACAUGAGGAUCACCCAUGUUAAAA [Mat - Exclusion 4 - Mayanna - D134]  MS2 coat protein  29.7 nM

Pending sequence:
GET /value?item= AAGAACGAAGGAUAUACAUGAGGAUCACCCAUGUAAAAGAAAGAGGGAAAAGAGAAAAGUAGAAGGUCGAAGAA [Ptolemy VIII Euergetes II] &field=apparent KD of MS2 coat protein returns 23.8 nM

###

test system: MS2 coat protein; assay: apparent KD of MS2 coat protein; designed switch direction (-1 OFF switch, 1 ON switch): -1; higher = weaker reporter binding; settings: input ligand: none
readout.kind: apparent KD of MS2 coat protein (nM)
# output: bare number, implied unit nM

sequence.input	apparent KD of MS2 coat protein [nM]
GCUGGUCGAGGAUAUAUAUGACGUGCUUCGGCACGAAGGUCACAUGAGGAUCACCCAUGUAGAAGGUGACCAGC [E2/9-B1] (Eterna round: R97, puzzle: Exclusion 2)	42
AAAUUAGCAAGUAGAUCCGACAUGAGGAUCACCCAUGUAAUCUAAUAUUACGCUGCAUGAGAGUGCGCUCGUCUUAG [Sensor-V1 #16] (Eterna round: R97, puzzle: Sensor, turn-off variant 1)	238
GUUCUGACAGGAUAUACAUGAGGAUCACCCAUGUGCCCUUAGAGAUGCAAAGCAUCUUGUAGAAGGGUCUGAAC [Omei Ex3 Model Bachelor's Dilema v27] (Eterna round: R97, puzzle: Exclusion 3)	37.6
AGAGUGCUGCGAGGAUAUACAUGAGGAUCACCCAUGUUUUCCUGUGAGGCUUUGCCUCACAGGAUGUAGAAGGCGCAGUACUCA [Mat - Exclusion NG 2 - Mod of JL - D38] (Eterna round: R96, puzzle: Exclusion NG 2)	13.1

Tested system MS2 coat protein; apparent KD of MS2 coat protein recorded for CGCGUAGGAGGAUAUAUGGCAUACAACAUGAGGAUCACCCAUGUAGUCGCACGUUGGGAUAUAGAAGGCCUGCGAA [Eternabot (L1) Solution 87] (Eterna round: R97, puzzle: Exclusion 5) was 20

###

tested on: K4 kissing-loop RNA reporter; test: apparent KD of K4 kissing-loop reporter; higher = weaker reporter binding; settings: Eterna round: R107; input ligand: FMN 200 uM
# apparent KD of K4 kissing-loop reporter per entry
# output: bare number, implied unit nM

Below: 2 sequences and their reported apparent KD of K4 kissing-loop reporter.
sequence.input	readout.kind	val
UGUCAUUGGUCGGCCGCCACUAGGACCGGGUAUAACCUAGUGAUGUUAGUGAGUACGGCCGCCACUAGGACCGGGACCGAUGACU [KL-SSTryp-B120 #DoubleAptamer]	apparent KD of K4 kissing-loop reporter	531
UGGAUAUAGUGAUGUUAUAUAGAGAGGGAUACCAGUUUAGAGAAGAACCCUUGGCAGCCUAAAGAAGUAUCAUUAGAGAAGAAUG [ExTheophyl.An]	apparent KD of K4 kissing-loop reporter	370

Pending sequence:
GET /value?item= UGAUACCAGACGGCCGCCACUCCUGCAGUCAAAGACUGCAAAGGAAUAUUCGUCCAGUGAUGUUGGAGGACCGGGUCUGGUAUCU [TrypBX 11 #SwitchBubble #Palindromic #StaticStem] &field=apparent KD of K4 kissing-loop reporter returns 974

###

test system: MS2 coat protein; assay: apparent KD of MS2 coat protein; designed switch direction (-1 OFF switch, 1 ON switch): -1; higher = weaker reporter binding; conditions: input ligand: FMN 200 uM
readout.kind: apparent KD of MS2 coat protein (nM)
# output: bare number, implied unit nM

GET /value?item= AAAUUAGCAAGUAGAUCCGACAUGAGGAUCACCCAUGUAAUCUAAUAUUACGCUGCAUGAGAGUGCGCUCGUCUUAG [Sensor-V1 #16] (Eterna round: R97, puzzle: Sensor, turn-off variant 1) &field=apparent KD of MS2 coat protein returns 211

GET /value?item= UCUCGCUGGCGAGGAUAUCCUGUGCGGUUCCGGCUCGUGUCUGUUACAUGAGGAUCACCCAUGUGGGAGAAGGUGCCUGUGGCC [Design 95] (Eterna round: R96, puzzle: Exclusion NG 2) &field=apparent KD of MS2 coat protein returns 21.1

GET /value?item= UUGAAGUCGUCAGGAUAUAGUUUUAAUGUCAUGCGUAUGUUCUUACAUGAGGAUCACCCAUGUCGCUAGAAGGGACUAAAGAUU [JR_ExcNG2_Sub010] (Eterna round: R96, puzzle: Exclusion NG 2) &field=apparent KD of MS2 coat protein returns 43.9

###

# apparent KD of MS2 coat protein per entry
system: MS2 coat protein; assay: apparent KD of MS2 coat protein, switch ON state; designed switch direction (-1 OFF switch, 1 ON switch): -1; higher = weaker reporter binding; details: FMN input: 0 or 200 uM; Eterna round: R93 (includes R88 designs)
# output: bare number, implied unit nM

Below: 5 sequences and their reported apparent KD of MS2 coat protein.
>>> df
                             sequence_input   val
0  AGAAAACAUGAGGAUCACCCAUGUGAGGAUAUCGAAAAGAAAAGAAAAGAAAGAAGAAUGAGAAGGCACAAGAA [Khaba]  29.5
1  AAAAAGAGAGGAUAUACAUGAGGAUCACCCAUGUGACACAAAAAAAAAAAAAAAAAAUGUAGAAGGCUCAAAAA [65%, Moding Exclusion3-cac2, 18]  35.5
2  AAAACGGUAGGAUAUACGAUUGGGAACUAGACCGAGGAACCACAUGAGGAUCACCCAUGUAGAAGGGCCAAAAA [Ex2 Malc#14]  16.9
3  GUGUACAGAGGAUAUACUGGAGCUAGGAAACUAGCAAGAUCACAUGAGGAUCACCCAUGUAGAAGGCUGUACAC [Ex2: 743]  90.8
4  CUCUUGUGAGGAUAUCGAAGAAAAGAAAAGAAAGAAAAGAACGAGAAGGCACAUGAGGAUCACCCAUGUAAGAA [EteRNA is fun!]  53.1

Pending sequence:
GET /value?item= AAAAAAAGAGGAUAUACGUACAUGUCGAAAGACGUGAAGGGACAUGAGGAUCACCCAUGUAGAAGGUUUAAAAA [Mat - Exclusion 2 - JL mod - D84] &field=apparent KD of MS2 coat protein returns 33.8

###

test system: K4 kissing-loop RNA reporter; assay: apparent KD of K4 kissing-loop reporter; higher = weaker reporter binding; details: Eterna round: R107; input ligand: theophylline 20 uM;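 further: bound reporter read as fluorescence of individual clusters on recovered sequencing chips by microscopy, with normalized cluster intensities fitted with a binding model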
# apparent KD of K4 kissing-loop reporter per entry
# output: bare number, implied unit nM

sequence.input	apparent KD of K4 kissing-loop reporter (nM)
UUUUAAUAAAAGGAUACCAGUACAAAUAAAGUACAUUAAUAGUAGAGUGAUGUUCUAAAGUACCCUUGGCAGCUUAGAGUAAGUU [#17 K4 Theophylline B Exclusion]	228
CUGUACAUCUCGGCCGCCACUGACAUGAGUGAUGUUCAUGUACAUGAGUGAUGUUCAUGUUCGGCCAGGACCGGGAGGUGUGCAG [KL-SSTryp-B2 #analogue #double KL]	271

GET /value?item= UGUAUGUGAUUUGAUACCAGACCAGCUGGUGGUAUAUGAGUGAUGUUCAUGUUGGUGUGGGUCCCUUGGCAGCAAAUCGCAUACU [KL-SSTheoB9] &field=apparent KD of K4 kissing-loop reporter returns 164

###

tested on: MS2 coat protein; assay: apparent KD of MS2 coat protein; designed switch direction (-1 OFF switch, 1 ON switch): 1; higher = weaker reporter binding; details: Eterna round: R95; input ligand: microRNA oligo, concentration not stated
readout.kind: apparent KD of MS2 coat protein (nM)
# output: bare number, implied unit nM

Below: 5 sequences and their reported apparent KD of MS2 coat protein.
sequence.input	readout.kind	val
GACAAUCUAUCUCAGGAUAUCAUGUCAAAGACAUGAGGAUCACCCAUGUACCAGGAAACUGGUUAUGAGAAGGGAGAUAGAUUGG [Mat - Same State 2 - Mod - D27] (puzzle: Same State 2)	apparent KD of MS2 coat protein	15.7
GAAGGAUGAGCGUAGGAUAUAGGAGGAGUGACAUGAGGAUCACCCAUGUAGUAGGAGGGAGGGUACUAGAAGGACGAGGAAGAAG [JR_SS2_Sub067] (puzzle: Same State 2)	apparent KD of MS2 coat protein	49.3
AGUCCAGCCUGAGCUGGACAAAAGCAUGUACAUGAGGAUCACCCAUGUCAUGUACAAGCUUUUUGCUCGUAUUAAUA [Mat - hsa-mir-208a - Mod of JL - D30] (puzzle: Sensor for hsa-mir-208a)	apparent KD of MS2 coat protein	12.7
AGGUGAUAUGGAAAGGAUAUACGGUUUAGGACAUGAGGAUCACCCAUGUGGAAGAUGGCGAGAGAGUAGAAGGUUCGAAAUUGGU [JR_SS@_Sub024] (puzzle: Same State 2)	apparent KD of MS2 coat protein	75
UGGAUCUAGGCUUGCCUGGGUCCAUGUUGACAUGAGGAUCACCCAUGUGUAUUCUAUAAGCUUUUUGUUUGUCAACU (puzzle: Sensor for hsa-mir-208a)	apparent KD of MS2 coat protein	23.3

GET /value?item= UGGUAACAUGAGGAUCACCCAUGUCAAAUGAAUCGAGGAUAUGGGAAUUAACAAUAUAAACUAGAAGGCGAAUUUG [Altered State 1-7 - Jieux - Same State 1] (puzzle: Same State 1) &field=apparent KD of MS2 coat protein returns 284

GET /value?item= UACUAUCUAUCUCAGGAUAUCAUGUCAAAGACAUGAGGAUCACCCAUGUACCAGGAAACUGGUUAUGAGAAGGGAGAUAGAUAGU [Mat - Same State 2 - Mod - D40] (puzzle: Same State 2) &field=apparent KD of MS2 coat protein returns 53.2

GET /value?item= CUGUCUACAGGUGUCUUUGCUCGUUUUAUACAUGAGGAUCACCCAUGUUGUAGCCCGGUGCUUGCGCUGGGCUGGUU [JL ViennaUCT Tearor mod 9] (puzzle: Sensor for hsa-mir-208a) &field=apparent KD of MS2 coat protein returns 15.6
